Sourced from ChEMBL document CHEMBL1135515

MIC values by entry
tested on: Staphylococcus aureus; experiment: Minimum concentration required for inhibition of Staphylococcus aureus was determined.; assay type: functional
Kindly provide the numeric value in µg/mL only, without the unit symbol.

# Record smiles, MIC [µg/mL]
data = [
    ("CN(Cc1cc2ccccc2n1C)C(=O)/C=C/c1ccc(N)nc1", 0.5),
    ("CN(Cc1cc2ccccc2n1C)C(=O)/C=C/c1cccnc1", 16),
    ("CC(=O)N(C)Cc1cc(C(=O)N(C)Cc2cc3ccccc3n2C)ccc1N", 16),
    ("CN(Cc1cc2ccccc2n1C)C(=O)/C=C/c1cnc(N)nc1", 2),
    ("CN(Cc1cc2ccccc2n1C)C(=O)c1ccc(N)cc1", 32),
]

Now for a further compound.
API: value(readout= MIC, system= Staphylococcus aureus, query= CN1Cc2cc(C(=O)N(C)Cc3cc4ccccc4n3C)ccc2NCC1=O ) 16
